measuredOn: T1, Bdf1 bromodomain 2 (GST-tagged, WT) (Saccharomyces cerevisiae (strain ATCC …, UniProt P35817))
T1 chain: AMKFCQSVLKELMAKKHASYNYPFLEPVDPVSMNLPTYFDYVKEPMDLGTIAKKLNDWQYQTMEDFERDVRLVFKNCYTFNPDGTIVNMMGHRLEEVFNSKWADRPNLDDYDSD
experimentDescription: histone peptide array probed with recombinant GST-bromodomain, signal normalised to myc peptide control
Non-standard residues stand in square brackets, D forms with d. No end group written: not given here. Arg(Me2a) = CN(C)C(=N)NCCC[C@H](N)C(=O)O; Arg(Me2s) = CN=C(NC)NCCC[C@H](N)C(=O)O; Lys(Me2) = CN(C)CCCC[C@H](N)C(=O)O; Lys(Me) = CNCCCC[C@H](N)C(=O)O
observationType: binding score

Sample records with binding score:
PRKQLATKAAR[Lys(Me2)]SAPATGG :: 0
ARTK(Me)QTARKSTGGKAPRKQ :: 0.00305
PRKQLATKAA[Arg(Me2a)][Lys(Me)]SAPATGG :: 0

## Input Consider the binder `A[Arg(Me2s)]T[Lys(Me)]QTA[Arg(Me2a)][Lys(Me)]STGGKAPRKQ` . State its measured binding score.
## Output 0

## Input Consider the binder ARTKQTARKSTGGKAPRKQ (A Rme2s T Kme3 Q T A Rme2s Kme2 S T G G K A P R K Q) . State its measured binding score.
## Output 0

## Input Consider the binder SGRGKQGGK(Ac)ARAK(Ac)AKSRSS [H2a 1-19] . State its measured binding score.
## Output 0.117

## Input Consider the binder `A[Arg(Me2s)]TK(Ac)QTARK(Me)STGGKAPRKQ` . State its measured binding score.
## Output 0.00305

Cited source for all entries: paper PMC5261807
